system: E. cloacae 2044; assay: MIC against E. cloacae 2044; type: cell-based; conditions: Enterobacter cloacae; Table 2; E. cloacae 2044, Caz S, IMP S; alone; read-out: MIC
MIC values by entry

- Compound: "CC(C)(O/N=C(\\C(=O)N[C@@H]1C(=O)N2C(C(=O)[O-])=C(C[n+]3ccc4c(ccn4Cc4cc(C(=N)N)cs4)c3)CS[C@H]12)c1csc(N)n1)C(=O)O [Example 5]"
  Measured on: "E. cloacae 2044"
  MIC [µg/mL]: 0.5
- Compound: "CC(C)(O/N=C(\\C(=O)N[C@@H]1C(=O)N2C(C(=O)[O-])=C(C[n+]3ccc4n3CCN4Cc3ccc(C(=N)N)cc3)CS[C@H]12)c1csc(N)n1)C(=O)O [Example 2]"
  Measured on: "E. cloacae 2044"
  MIC [µg/mL]: 0.25
- Compound: "CC(C)(O/N=C(\\C(=O)N[C@@H]1C(=O)N2C(C(=O)[O-])=C(C[n+]3ccc4c(ccn4Cc4cc(C(=N)N)co4)c3)CS[C@H]12)c1csc(N)n1)C(=O)O [Example 6]"
  Measured on: "E. cloacae 2044"
  MIC [µg/mL]: 0.12
- Compound: "CC(C)(O/N=C(\\C(=O)N[C@@H]1C(=O)N2C(C(=O)[O-])=C(C[n+]3ccc4c(ccn4Cc4ccc(C(=N)N)cc4)c3)CS[C@H]12)c1csc(N)n1)C(=O)O [Ex-1]"
  Measured on: "E. cloacae 2044"
  MIC [µg/mL]: 0.25
